Measured on: P. falciparum apicoplast DNA polymerase (Pf-apPOL) (Plasmodium falciparum)
Sequence (Q8ILY1 entry or part of it): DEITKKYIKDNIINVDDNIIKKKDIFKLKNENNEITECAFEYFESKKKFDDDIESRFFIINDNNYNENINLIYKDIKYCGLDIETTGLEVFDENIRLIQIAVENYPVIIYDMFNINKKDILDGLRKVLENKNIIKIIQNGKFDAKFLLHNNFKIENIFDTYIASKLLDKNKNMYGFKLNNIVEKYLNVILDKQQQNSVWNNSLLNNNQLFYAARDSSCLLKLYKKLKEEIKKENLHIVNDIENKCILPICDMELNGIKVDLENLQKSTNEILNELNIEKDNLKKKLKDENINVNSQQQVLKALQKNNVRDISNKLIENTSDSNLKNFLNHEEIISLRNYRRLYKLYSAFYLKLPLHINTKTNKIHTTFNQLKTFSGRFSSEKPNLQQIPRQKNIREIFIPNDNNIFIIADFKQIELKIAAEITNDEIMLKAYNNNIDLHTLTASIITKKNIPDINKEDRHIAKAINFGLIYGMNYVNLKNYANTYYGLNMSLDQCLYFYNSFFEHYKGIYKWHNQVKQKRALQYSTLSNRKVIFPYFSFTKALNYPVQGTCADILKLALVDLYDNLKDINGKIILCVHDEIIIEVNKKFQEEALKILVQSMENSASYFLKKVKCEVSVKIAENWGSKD
Measurement protocol: Fluorescence-based high-throughput DNA polymerase assay (molecular beacon), primary screen and dose-response;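 also: test concentration in µM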
Type: biochemical
Condition: DRC-1; 180'; conc 5
Readout type: % inhibition apPOL 180' (%)
Answer format: numeric, % implied, no suffix.

{"Molecule": "Cc1cccc(C2=N/C(=C\\c3ccc([N+](=O)[O-])o3)C(=O)O2)c1", "% inhibition apPOL 180' (%)": 6.493}
{"Molecule": "C=CCOc1c(Br)cc(Br)cc1/C=C1\\SC(=N)NC1=O", "% inhibition apPOL 180' (%)": -7.333}
{"Molecule": "Cc1ccc(NC(=O)Cn2ccc3c(=O)[nH]ccc32)c(C)c1", "% inhibition apPOL 180' (%)": -5.3418}
{"Molecule": "COc1ccccc1C1CC(=O)Oc2cc3c(cc21)OCO3 (centres unmarked)", "% inhibition apPOL 180' (%)": 1.7201}
{"Molecule": "Cc1ccc(N2NC(=O)/C(=C\\c3ccc(O)c([N+](=O)[O-])c3)C2=O)cc1Cl", "% inhibition apPOL 180' (%)": 2.877}

### Prompt Name the recorded % inhibition apPOL 180' for O=C(O)c1ccc(COc2cc([N+](=O)[O-])cc3cccnc23)cc1 .
### Response 9.076

### Prompt Please look up its % inhibition apPOL 180': Cc1ccc(CNC(=O)c2cnn3c(O)cc(CSc4ccc(Cl)cc4)nc23)cc1
### Response 1.596
